Tested on: Saccharomyces cerevisiae
Test: protein stability index of tFT-peptide fusion (C-terminal peptide) (PSI (0-1 scale)); higher = more stable (slower turnover)
Conditions: genetic background: wild type; temperature: 37 C
Cut-off 0.4 on protein stability index, inclusive. At or above means Satisfied; below means Not satisfied.

As a guide, the following entries are already answered.
| item sequence | class assignment |
| --- | --- |
| IGWKLNRIQKNI | Satisfied |
| CLAWWLGRVWVC | Not satisfied |
| WIGCTVKIASLY | Satisfied |
| FLSVPHLLFLFI | Satisfied |
| GLCSGTGARWLV | Satisfied |

Exam item: decide whether the reported protein stability index for `MCVCLLVRVVPS` is at least 0.4.
Not satisfied

Exam item: decide whether the reported protein stability index for `LLYPSKFCITAI` is at least 0.4.
Satisfied

Exam item: decide whether the reported protein stability index for `VWGLGWLVVGVG` is at least 0.4.
Not satisfied

Exam item: decide whether the reported protein stability index for `FSSRVFLIVGIY` is at least 0.4.
Satisfied

Exam item: decide whether the reported protein stability index for `LQCVYFVFFICF` is at least 0.4.
Not satisfied

Exam item: decide whether the reported protein stability index for `LPTLDCPLHRLF` is at least 0.4.
Satisfied

Exam item: decide whether the reported protein stability index for `RNWVVDGWRRFP` is at least 0.4.
Satisfied

Exam item: decide whether the reported protein stability index for `FRILVGCRVVLM` is at least 0.4.
Satisfied

----------
System: Saccharomyces cerevisiae
Assay: protein stability index of tFT-peptide fusion in wild type (PSI (0-1 scale)); higher = more stable (slower turnover)
Conditions: genetic background: wild type
Consider the reported protein stability index of an entry and match it to a band in class 1: < 0.2; class 2: ≥ 0.2 and < 0.3; class 3: ≥ 0.3

As a guide, the following entries are already answered.
| item sequence | class assignment |
| --- | --- |
| AYWRVGLWRGAS | class 3 |
| PDGRNHLIKLLN | class 1 |
| PSLAASRWRVVG | class 1 |
| ILYMCSVGCWFR | class 2 |
| RLIQPVPVQFLN | class 1 |
| RLIQPLPVHFLN | class 1 |

Textbook exercise: identify the category of the sequence given here, `PSLAASFTRVVG` , according to its measured value.
class 3

Textbook exercise: identify the category of the sequence given here, `RSLRVLLPLYFH` , according to its measured value.
class 3

Textbook exercise: identify the category of the sequence given here, `PSLAASFCRVVG` , according to its measured value.
class 3

Textbook exercise: identify the category of the sequence given here, `PSLAASFWRVVK` , according to its measured value.
class 3

Textbook exercise: identify the category of the sequence given here, `PSLAASFWRVTG` , according to its measured value.
class 1

Textbook exercise: identify the category of the sequence given here, `VRGAVGGFRLVG` , according to its measured value.
class 3

Textbook exercise: identify the category of the sequence given here, `RSLRVLLPLYFRD` , according to its measured value.
class 3

Textbook exercise: identify the category of the sequence given here, `ARWRVGLWRRAS` , according to its measured value.
class 1

Textbook exercise: identify the category of the sequence given here, `VRGAVGGWRLVS` , according to its measured value.
class 1

Textbook exercise: identify the category of the sequence given here, `VRQAVGGWRLVG` , according to its measured value.
class 1

Textbook exercise: identify the category of the sequence given here, `CTSCGYKFRTNP` , according to its measured value.
class 3

Textbook exercise: identify the category of the sequence given here, `FSMRFTFRYWVN` , according to its measured value.
class 1

Textbook exercise: identify the category of the sequence given here, `LVIYLSCVACIN` , according to its measured value.
class 1

Textbook exercise: identify the category of the sequence given here, `PDKRNHLICLLN` , according to its measured value.
class 2

Textbook exercise: identify the category of the sequence given here, `FSMRWTSRYWVN` , according to its measured value.
class 1
